system: guinea-pig papillary muscle; assay: Electrophysiological test: action potential of guinea-pig papillary muscle (microelectrode technique); conditions: Table 4; at the listed bath concentration
Endpoint Name: TIME 1 (Shortest time needed to attain suppression) (min)
Give bare numbers, in min.

CCCCNC12OC3C4C5CC(C6C5C3C61)C42 (single isomer, unassigned) [(-) -2]: 25
c1ccc(CNC23OC4C5C6CC(C7C6C4C72)C53)cc1 (single isomer, unassigned) [(-) -4]: 10
CCCCNC12OC3C4C5CC(C6C5C3C61)C42 (single isomer, unassigned) [(+) -2]: 25
CCCCCCCCNC12OC3C4C5CC(C6C5C3C61)C42 (single isomer, unassigned) [(-) -3]: 10
CCCCCCCCNC12OC3C4C5CC(C6C5C3C61)C42 (single isomer, unassigned) [(+) -3]: 30

Record TIME 1 (Shortest time needed to attain suppression) for all entries; do not skip any.
1. CCCCCCCCNC12OC3C4C5CC(C6C5C3C61)C42 (racemic) [Compound 3]
2. c1ccc(CNC23OC4C5C6CC(C7C6C4C72)C53)cc1 (single isomer, unassigned) [(+) -4]
3. CCCCNC12OC3C4C5CC(C6C5C3C61)C42 (racemic) [Compound 2]
4. c1ccc(CNC23OC4C5C6CC(C7C6C4C72)C53)cc1 (racemic) [Compound 4]

Solution:
6
20
25
15

Each recorded value in this set is attributed to patent EP0312245A2.
